assay: label from the status in PepcDB records
PARAMETER MEASURED: protein production

CONSTRUCT SEQUENCE	protein production
MEQGMSKRILVPVAHGSEEMETVIIVDTLVRAGFQVTMAAVGDKLQVQGSRGVWLTAEQTLEACSAEAFDALALPGGVGGAQAFADSTALLALIDAFSQQGKLVAAICATPALVFAKQQKFVGARMTCHPNFFDHIPSERLSRQRVCYYATQHLLTSQGPGTALEFALAMIALLAGVELAQHVAAPMVLHPQQLTELSGFIDAQS	not failed
MKIATTSSAFDLLPKDQKYKTKRVSYNDFSDLSFLPVVNPKIKRQKKTLEEEVDSTSKAKSSRTSLTKSVTTTTKLTKPEETITASSKECLQETKTNKKPDLRDLIAKAQEKIQNKREINHRREYITRQRIAARLALNQMVATVSFDDHLNYHREMEQRGYTFIQDQVDNLNMFSLWSRSDYNGITNSVLETSNTTMRSDEDSSRKKQQIIKKKSNTFPTDVKEH	failed
MEIRNVKGTKDYLPEEQVLRSKIKRACEDTFERYGCKPLETPTLNMYELMSYKYGGGDEILKEIYTLQDQGKRDLALRYDLTIPFAKVVAMNPNIRLPFKRYEIGKVFRDGPIKQGRFREFIQCDVDIVGVESVMAEAELMSMAFELFQTLNLEVTIQYNNRKLLNGILQAINIPTELTSDVILSLDKIEKIGIDGVRKDVLERGISEEMADTICNTVLSCLQLSIADFKEAFNNPLVADGVNELQQLQQYLIALGINENTIFNPFLARGLTMYTGTVYEIFLKDGSITSSIGSGGRYDNIIGAFRGDDMSYPTVGISFGLDVIYTALSQKETISST	not failed
MFGGAKGGHFGVPPAGYSGAVPQSEAGTKAGPAGGRPADTMWRVRCKAKGGTHLLQGLSSRTRLRELQGQIAAITGIAPGSQRILVGYPPECLDLSDRDITLGDLPIQSGDMLIVEEDQTRPKASPAFSKYGAPSYVREALPVLTRTAVPADNSCLFTSVYYVVEGGVLNPACAPEMRRLIAQIVASDPVLYSEAILGKTNEDYCDWIRRDDTWGGAIEISILSKFYQCEICVVDTQTVRIDRFGEDAGYTKRVLLIYDGIHYDPLQRNFPDPDTPPLTIFSSNDDIVLVQALELADEARRKRQFTDVNRFTLRCMICQKGLTGQAEARDHARETGHTNFGEV	failed

Next sequence, please.
Query: Entry `MADSIKSSNSFQKLDNIDAKETSTVDRKWVALTAYQPVDVVTKTVEVPIIKTVEKYVPKTIIQEKIIHVPKNVTHIVEKIVEVPEVKYIEKIVEVPHIHYKNKYVPKIEIVEKVVERQKIIEKWHDKIVEVPQIKEVVRFKQIEDSEEIIKYVPRNSKNIDWEDEYKKYTESKGLQRYSLDQNNIYQQANSFNQFNENAYNQNAFNRSYELLNKQSSVKSQNNASGENFSQMNFYNQYSGANFEQERSIQASNFEPSGSMQLKRLSSEEIKPAGCCSAACT` : reported protein production = ?
Result: failed
